Hey, just so you know, these numbers are from BindingDB's records for doi:10.1016/j.bmcl.2008.02.009.

Molecular target: Isoprenyl transferase (Streptococcus pneumoniae serotype 4 (strain ATCC BAA-334 / TIGR4))
Sequence (Q97SR4 whole entry): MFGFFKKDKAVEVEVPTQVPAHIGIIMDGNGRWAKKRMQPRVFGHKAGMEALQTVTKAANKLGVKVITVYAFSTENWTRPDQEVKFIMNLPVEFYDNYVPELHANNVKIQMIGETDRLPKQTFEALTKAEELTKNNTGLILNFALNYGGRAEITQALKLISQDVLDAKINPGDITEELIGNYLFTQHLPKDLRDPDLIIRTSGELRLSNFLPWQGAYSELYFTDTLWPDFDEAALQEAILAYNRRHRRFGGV
Assay: Inhibition of Streptococcus pneumoniae UPPS
pIC50: −log10 of the molar value.
Measured pIC50, listed per entry.
outcome_measure: pIC50

> print(dat)
                                   molecule                     target.or.test.system  test.result
1  O=C1CC(Cc2ccccc2)NC(=O)C1C(=O)Nc1ccc(Nc2ccccc2)cc1 (centres undefined)  Isoprenyl transferase (Streptococcus pneumoniae serotype 4 (strain ATCC BAA-334 / TIGR4))         5.96
2  O=C(Nc1ccc(-c2ccccc2)cc1)C1C(=O)OC(Cc2ccccc2)C1=O (centres undefined)  Isoprenyl transferase (Streptococcus pneumoniae serotype 4 (strain ATCC BAA-334 / TIGR4))         5.96
3  O=C1CC(Cc2ccccc2)NC(=O)C1C(=O)Nc1ccc(N2CCCCC2)cc1 (centres undefined)  Isoprenyl transferase (Streptococcus pneumoniae serotype 4 (strain ATCC BAA-334 / TIGR4))         6.96
4  O=C1CC(Cc2ccccc2)NC(=O)C1C(=O)Nc1ccc(Oc2ccccc2)cc1 (centres undefined)  Isoprenyl transferase (Streptococcus pneumoniae serotype 4 (strain ATCC BAA-334 / TIGR4))         6.96
